Test system: TTR
Test: TTR editing in primary human hepatocytes transfected with Spy Cas9 protein (RNP) loaded with dgRNAs (Table 8)
Format: cell-based
Conditions: dgRNA transfected with Spy Cas9 protein (RNP)
measured endpoint: Avg % Deletion (%)

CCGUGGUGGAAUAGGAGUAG (tested as dual guide RNA, chemistry not given here) [CR003386] | 0.25
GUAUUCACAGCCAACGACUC (tested as dual guide RNA, chemistry not given here) [CR003373] | 0.19
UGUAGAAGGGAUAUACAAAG (tested as dual guide RNA, chemistry not given here) [CR003365] | 7.54
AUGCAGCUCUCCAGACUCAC (tested as dual guide RNA, chemistry not given here) [CR003358] | 5.67
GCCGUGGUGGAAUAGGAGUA (tested as dual guide RNA, chemistry not given here) [CR003387] | 0.11
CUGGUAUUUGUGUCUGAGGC (tested as dual guide RNA, chemistry not given here) [CR003341] | 5.02
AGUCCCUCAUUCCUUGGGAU (tested as dual guide RNA, chemistry not given here) [CR003392] | 0.14
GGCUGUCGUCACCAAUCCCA (tested as dual guide RNA, chemistry not given here) [CR003391] | 0.26
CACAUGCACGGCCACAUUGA (tested as dual guide RNA, chemistry not given here) [CR003350] | 5.07
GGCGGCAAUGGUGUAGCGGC (tested as dual guide RNA, chemistry not given here) [CR003378] | 0.42
UCACAGAAACACUCACCGUA (tested as dual guide RNA, chemistry not given here) [CR005300] | 3.61
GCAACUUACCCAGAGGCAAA (tested as dual guide RNA, chemistry not given here) [CR003356] | 1.29
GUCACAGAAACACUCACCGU (tested as dual guide RNA, chemistry not given here) [CR005301] | 1.84
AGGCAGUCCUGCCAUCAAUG (tested as dual guide RNA, chemistry not given here) [CR003348] | 9.44

====

System: TTR
Experiment: TTR editing in primary human hepatocytes transfected with Spy Cas9 protein (RNP) loaded with dgRNAs (Table 8)
Format: cell-based
Details: dgRNA transfected with Spy Cas9 protein (RNP)
Experimental: Primary liver hepatocytes. Primary human liver hepatocytes (PHH) and primary cynomolgus liver hepatocytes (PCH) (Gibco) were cultured per the manufacturer's protocol (Invitrogen, protocol 11.28.2012). […] Cells were counted and plated on Bio-coat collagen I coated 96-well plates (ThermoFisher, Cat. 877272) at a density of 33,000 cells/well for human or 60,000 cells/well for cyno (or 65,000 cells/well when assaying effects on TTR protein, described further below). […]
Label T when Avg % Insert is at or above 10%; otherwise label F.

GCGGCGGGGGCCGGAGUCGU (tested as dual guide RNA, chemistry not given here) [CR003374] | F
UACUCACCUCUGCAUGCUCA (tested as dual guide RNA, chemistry not given here) [CR003372] | T
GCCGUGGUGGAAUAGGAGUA (tested as dual guide RNA, chemistry not given here) [CR003387] | F
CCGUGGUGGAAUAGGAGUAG (tested as dual guide RNA, chemistry not given here) [CR003386] | F
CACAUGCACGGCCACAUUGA (tested as dual guide RNA, chemistry not given here) [CR003350] | T
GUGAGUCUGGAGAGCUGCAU (tested as dual guide RNA, chemistry not given here) [CR003360] | T
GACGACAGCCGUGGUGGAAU (tested as dual guide RNA, chemistry not given here) [CR003388] | F
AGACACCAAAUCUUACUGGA (tested as dual guide RNA, chemistry not given here) [CR003367] | T
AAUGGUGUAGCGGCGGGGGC (tested as dual guide RNA, chemistry not given here) [CR003375] | F
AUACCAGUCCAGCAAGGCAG (tested as dual guide RNA, chemistry not given here) [CR003338] | T
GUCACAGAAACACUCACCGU (tested as dual guide RNA, chemistry not given here) [CR005301] | T
UCCACUCAUUCUUGGCAGGA (tested as dual guide RNA, chemistry not given here) [CR005298] | T
